Where do these numbers come from? They come from PubChem BioAssay (NCI).

test system: HCC-2998 colon; experiment: NCI-60 one-dose screen, 48 h (100 = growth as untreated, 0 = no growth, -100 = all killed); conditions: 10 µM unless noted
Compounds without any hit were thinned out: in the full panel of roughly 83,000, 20% have a hit.
MEASUREMENT LABEL: growth (%)
Lab book: enter the figure in %, no units written.

Example entries begin here.
COMPOUND	TGT	growth [%]
Cc1cc(C(=O)O)c(C)cc1C(=O)O	HCC-2998 colon	95.1
COc1ccc(/C=N\Nc2ccc([N+](=O)[O-])cn2)cc1OC	HCC-2998 colon	99.7
CCCCCCCC1(C)NC(=O)NC1=O (stereo not given)	HCC-2998 colon	140

Given the entry `O=C1OCC/C1=C\OCCCO/C=C1\CCOC1=O` , report its measured growth.
114

Given the entry CO[C@H]1CC(O[C@@H]2/C(C)=C/C[C@@H]3C[C@@H](C[C@]4(CC[C@H](C)[C@@H](C5CCCCC5)O4)O3)OC(=O)[C@@H]3C=C(C)/C(=N/O)[C@H]4OC/C(=C\C=C\[C@@H]2C)[C@]43O)O[C@@H](C)C1O (stereo not given in full) , report its measured growth.
-78.1

* * *

Tested on: BT-549 breast
Experiment: NCI-60 one-dose screen, 48 h (100 = growth as untreated, 0 = no growth, -100 = all killed)
Details: 10 µM unless noted
Protocol: Growth inhibition of the BT-549 human tumor cell line is measured as a screen for anti-cancer activity. Cells are grown in 96 well plates and exposed to the test compound for 48 hours. Compounds are tested at a single concentration, which is 10^-5 M for most compounds. The reported endpoint is percent growth (GI% or GIPRCNT), where numbers from 0 - 100% represent growth inhibition, and numbers from -100% - 0 represent cell death. For example, a value of 40 represents 60% growth inhibition. […]
About 83,000 compounds went through this panel and 20% of them were active in at least one assay; those are over-represented in the sample as a whole.
MEASUREMENT LABEL: growth (%)
Lab book: enter the figure in %, no units written.

Example entries begin here.
MOLECULE	READOUT VALUE
CN1CCN(CC(=O)Nc2nc3c(s2)Nc2cc(Cl)c(Cl)cc2NC3=O)CC1	100
O=C(C=C=Nc1ccccc1)C(=O)N=C=Cc1ccccc1	-7.61
COc1cccc(-c2nnc(N)o2)c1	87.4
O=C(Cn1ccnc1)NC(c1ccccc1)c1ccccc1	105

// switching to the query molecule
Please state recorded growth (tested on BT-549 breast) of CC[N+](C)(CC)CCCC(C)Nc1ccnc2cc(Cl)ccc12 (stereo not given)
117

* * *

tested on: M14 melanoma; test: NCI-60 one-dose screen, 48 h; conditions: 10 µM unless noted
About 83,000 compounds went through this panel and 20% of them were active in at least one assay; those are over-represented in the sample as a whole. Active and inactive are the calls of the source. The calls were made as follows: active = growth percent below 10; inactive = the rest.
The reply should name one outcome from active, inactive

Here's what some known entries look like.
> print(dat)
                                   compound     class
1                CNc1ccc(CSc2ccc(Cl)cc2)cc1  inactive
2                  CCN(CC)CCNc1ccc(Cl)cc1Cl  inactive
3  C=C(C)[C@H]1CC/C(C)=C/CC[C@]2(C)O[C@H]2CC/C(C=O)=C\C1O (some centres undefined)  inactive

Hi team, can someone confirm the assay call for `O=C(CN1CCCCC1)Sc1nnc2sc3ccccc3n12` ?
inactive

Hi team, can someone confirm the assay call for `CN1COc2ccc3ccccc3c2C1` ?
inactive

Hi team, can someone confirm the assay call for `Cc1nn(-c2ccc(Cl)cc2)c2nc3c(nc12)c(=O)oc1ccccc13` ?
inactive
